systemUnderTest: (H^+ +K^+) ATPase (Sus scrofa)
Construct: prepared from fresh pieces of the fundus ventriculi of hog stomach; from tissue; host or cells: hog stomach, fundus ventriculi (fresh pieces), prepared by the method of Saccomani et al., J. Biol. Chem. 1976
Sequence (P19156 2-1034 limits assumed): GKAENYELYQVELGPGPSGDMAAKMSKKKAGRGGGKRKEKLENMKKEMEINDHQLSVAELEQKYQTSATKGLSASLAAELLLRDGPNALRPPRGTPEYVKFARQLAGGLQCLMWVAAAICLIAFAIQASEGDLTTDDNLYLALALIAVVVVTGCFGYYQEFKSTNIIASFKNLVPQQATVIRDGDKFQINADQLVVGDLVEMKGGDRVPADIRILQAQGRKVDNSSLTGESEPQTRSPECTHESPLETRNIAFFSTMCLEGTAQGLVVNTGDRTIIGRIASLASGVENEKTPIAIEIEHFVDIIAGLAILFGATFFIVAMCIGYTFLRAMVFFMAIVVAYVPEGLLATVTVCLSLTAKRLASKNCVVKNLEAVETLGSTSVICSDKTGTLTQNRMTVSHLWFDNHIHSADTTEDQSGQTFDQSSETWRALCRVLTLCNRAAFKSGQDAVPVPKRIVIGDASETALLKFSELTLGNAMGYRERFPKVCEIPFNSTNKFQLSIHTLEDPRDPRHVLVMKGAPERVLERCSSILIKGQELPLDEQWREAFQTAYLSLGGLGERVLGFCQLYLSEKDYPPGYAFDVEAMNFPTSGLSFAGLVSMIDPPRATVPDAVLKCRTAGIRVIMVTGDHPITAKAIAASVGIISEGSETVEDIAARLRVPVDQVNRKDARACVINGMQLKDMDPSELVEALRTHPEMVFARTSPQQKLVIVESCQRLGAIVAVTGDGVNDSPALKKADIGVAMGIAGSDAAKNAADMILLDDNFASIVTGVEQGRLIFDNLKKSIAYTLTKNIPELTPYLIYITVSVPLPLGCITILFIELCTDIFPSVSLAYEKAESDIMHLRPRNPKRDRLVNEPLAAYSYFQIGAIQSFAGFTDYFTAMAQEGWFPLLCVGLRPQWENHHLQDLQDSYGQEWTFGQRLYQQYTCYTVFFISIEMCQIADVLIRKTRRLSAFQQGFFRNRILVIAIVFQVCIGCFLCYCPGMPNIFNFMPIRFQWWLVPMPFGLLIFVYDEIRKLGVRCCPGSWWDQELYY
Sequence (P18434 whole entry partner): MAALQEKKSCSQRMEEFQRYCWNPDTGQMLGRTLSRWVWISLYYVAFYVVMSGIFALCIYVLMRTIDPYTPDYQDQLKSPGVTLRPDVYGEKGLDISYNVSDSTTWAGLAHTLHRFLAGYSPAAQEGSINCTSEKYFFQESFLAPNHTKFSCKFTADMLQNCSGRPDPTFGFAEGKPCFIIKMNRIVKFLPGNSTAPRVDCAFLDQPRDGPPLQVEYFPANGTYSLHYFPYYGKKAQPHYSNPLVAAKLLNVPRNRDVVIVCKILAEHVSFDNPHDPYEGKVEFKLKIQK
protocolSummary: Inhibitory effect on (H^+ +K^+) ATPase
Type: biochemical, hog
conditionLabel: at 1 × 10^-3 M; in vitro; read-out: Degree of inhibition, Inhibitory effect on (H^+ + K^+) ATPase
quantityMeasured: inhibition at 1000 µM
Reply with a number, then the unit it belongs to.

Below, 4 compounds whose answers are already recorded.
compound="COc1c(C)cnc(C[S+]([O-])c2nc3ncc(C)cc3[nH]2)c1C (stereo not drawn) [Compound β, reference compound]" quantitymeasured="inhibition at 1000 µM" datavalue=100%
compound="COc1c(C)cnc(C[S+]([O-])c2nc3ncc(Br)cc3[nH]2)c1C (stereo not drawn) [Compound α, reference compound]" quantitymeasured="inhibition at 1000 µM" datavalue=100%
compound="CCCCOc1ccc2[nH]c([S+]([O-])Cc3ncc(C)c(C)c3C)nc2n1 (centres unmarked)" quantitymeasured="inhibition at 1000 µM" datavalue=98.5%
compound="Cc1ccnc(C[S+]([O-])c2nc3nc(OCC(F)(F)C(F)(F)C(F)(F)F)ccc3[nH]2)c1 (centres unmarked)" quantitymeasured="inhibition at 1000 µM" datavalue=92.1%

Switching to the query record.
Exercise: Any idea what inhibition at 1000 µM came out for COc1ccnc(C[S+]([O-])c2nc3nc(OC(C)C)ccc3[nH]2)c1 (centres unmarked) on (H^+ +K^+) ATPase (Sus scrofa)?
Key: 93.7%
